experiment: Octanol-water partition coefficient, log Kow of the compound
Give fulfilled when the value for logP is at least 2. Give not fulfilled when it is less.

Use the examples below as a reference point.
* O=C(O)Cc1c[nH]c2ccc(O)cc12 | not fulfilled
* CCCc1[nH]c2ccccc2c1CC(=O)O | fulfilled
* CCCc1ccc2[nH]cc(CC(=O)O)c2c1 | fulfilled
* O=C(O)Cc1c[nH]c2cc(Cl)ccc12 | fulfilled

Next item in the queue.
Qu. Answer whether logP of O=C(O)Cc1c[nH]c2ccccc12 is greater than or equal to 2.
Ans. not fulfilled

* * *

target: Albumin (Homo sapiens); assay: Binding affinity to human serum albumin; conditions: isolated protein
Sequence (P02768 whole entry): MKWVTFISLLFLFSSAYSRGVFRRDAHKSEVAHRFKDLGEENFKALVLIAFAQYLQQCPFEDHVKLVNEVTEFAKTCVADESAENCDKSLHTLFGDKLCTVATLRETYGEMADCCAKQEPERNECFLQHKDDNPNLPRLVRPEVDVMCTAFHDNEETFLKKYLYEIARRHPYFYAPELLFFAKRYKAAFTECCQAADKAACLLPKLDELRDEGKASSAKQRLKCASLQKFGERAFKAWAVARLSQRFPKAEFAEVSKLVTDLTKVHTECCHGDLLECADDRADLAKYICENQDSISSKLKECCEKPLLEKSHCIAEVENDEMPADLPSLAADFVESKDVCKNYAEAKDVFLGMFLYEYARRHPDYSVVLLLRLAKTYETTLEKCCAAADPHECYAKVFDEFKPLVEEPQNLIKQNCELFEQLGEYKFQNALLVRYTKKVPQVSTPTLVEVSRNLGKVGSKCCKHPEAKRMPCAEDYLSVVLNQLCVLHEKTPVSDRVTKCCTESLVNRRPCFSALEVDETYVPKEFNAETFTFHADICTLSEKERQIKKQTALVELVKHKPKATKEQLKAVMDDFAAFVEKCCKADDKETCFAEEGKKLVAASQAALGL
measurement.type: logKA
Quick one: just the number, no unit, thanks!

Known results for molecules:
• Cn1cc(CC(=O)O)c2ccccc21 = 0.243
• O=C(O)Cc1c[nH]c2c(Cl)cccc12 = 0.623

Field logKA (entry CCc1ccc2[nH]cc(CC(=O)O)c2c1 ) reads 0.49

* * *

Each record here notes measured logP.
test: Octanol-water partition coefficient, log Kow of the compound
Quick one: just the number, no unit, thanks!

Known results for compounds:
- O=C(O)Cc1c[nH]c2ccc(F)cc12: 1.72
- O=C(O)Cc1c[nH]c2c(Cl)ccc(Cl)c12: 3.02

Field logP (entry O=C(O)Cc1c[nH]c2cc(Cl)cc(Cl)c12 ) reads 3.29

Field logP (entry O=C(O)Cc1c[nH]c2ncccc12 ) reads 0.45

Field logP (entry O=C(O)Cc1c[nH]c2cc(F)ccc12 ) reads 1.74

Field logP (entry CCc1ccc2[nH]cc(CC(=O)O)c2c1 ) reads 2.54

Field logP (entry COc1ccc2[nH]c(C)c(CC(=O)O)c2c1 [DESCHLOROBENZOYL INDOMETHACIN] ) reads 2.14

Field logP (entry O=C(O)Cc1c[nH]c2cccc(Cl)c12 ) reads 2.13

Field logP (entry O=C(O)Cc1c[nH]c2ccc(Cl)cc12 ) reads 2.38

Field logP (entry Cc1ccc2[nH]cc(CC(=O)O)c2c1 ) reads 1.99

Field logP (entry Cc1ccc2c(CC(=O)O)c[nH]c2c1 ) reads 1.96

Field logP (entry CCc1ccc2c(CC(=O)O)c[nH]c2c1 ) reads 2.56

Field logP (entry O=C(O)Cc1c[nH]c2c(Cl)cc(Cl)cc12 ) reads 3.42

Field logP (entry O=C(O)Cc1c[nH]c2c(Cl)cccc12 ) reads 2.32

Field logP (entry O=C(O)Cc1c[nH]c2cccc(F)c12 ) reads 1.66

Field logP (entry O=C(O)Cc1c[nH]c2cc(Cl)c(Cl)cc12 ) reads 3.2

Field logP (entry Cc1cccc2[nH]cc(CC(=O)O)c12 ) reads 1.84

Field logP (entry COc1ccc2[nH]cc(CC(=O)O)c2c1 ) reads 1.23

* * *

target: Albumin (Homo sapiens); assay: Binding affinity to human serum albumin; settings: isolated protein
measurement.type: logKA

Known results for molecules:
* CCc1cccc2[nH]cc(CC(=O)O)c12 | 0.393
* O=C(O)Cc1c[nH]c2c(F)cccc12 | 0.247
* Cc1[nH]c2ccccc2c1CC(=O)O | -0.04
* O=C(O)Cc1c[nH]c2cc(Cl)ccc12 | 0.863
* O=C(O)Cc1c[nH]c2c(Cl)cc(Cl)cc12 | 0.983
* Cc1ccc2c(CC(=O)O)c[nH]c2c1 | 0.689

Moving on to another molecule below.
Reading of logKA for O=C(O)Cc1c[nH]c2ccc(Cl)c(Cl)c12 with Albumin (Homo sapiens): 0.799

* * *

Each record here notes measured logKA.
biological target: UniProt:P02768; experiment: Binding affinity to human serum albumin; settings: isolated protein
Quick one: just the number, no unit, thanks!

* O=C(O)Cc1c[nH]c2ccc(O)cc12 | -0.125
* COc1ccc2[nH]c(C)c(CC(=O)O)c2c1 | 0.228
* O=C(O)Cc1c[nH]c2ccc(F)cc12 | 0.261

Field logKA (entry CCCc1ccc2[nH]cc(CC(=O)O)c2c1 ) reads 0.809

Field logKA (entry Cc1ccc2[nH]cc(CC(=O)O)c2c1 ) reads 0.217

Field logKA (entry O=C(O)Cc1c[nH]c2ccc(Cl)cc12 ) reads 0.646

Field logKA (entry CCOC(=O)Cc1c[nH]c2ccccc12 ) reads 0.292

Field logKA (entry O=C(O)Cc1c[nH]c2cc(Cl)cc(Cl)c12 ) reads 1.082

Field logKA (entry O=C(O)Cc1c[nH]c2c(Cl)c(Cl)ccc12 ) reads 1.09

Field logKA (entry Cc1cccc2c(CC(=O)O)c[nH]c12 ) reads 0.288

* * *

experiment: Octanol-water partition coefficient, log Kow of the compound
Each record here notes measured logP.

• CCc1cccc2[nH]cc(CC(=O)O)c12 = 2.33

Field logP (entry O=C(O)Cc1c[nH]c2ccc(Cl)c(Cl)c12 ) reads 2.92

Field logP (entry O=C(O)Cc1c[nH]c2ccc(OCc3ccccc3)cc12 ) reads 3.2

Field logP (entry CCc1[nH]c2ccccc2c1CC(=O)O ) reads 2.09

Field logP (entry CCOC(=O)Cc1c[nH]c2ccccc12 ) reads 2.34

* * *

Each record here notes measured logP.
assay: Octanol-water partition coefficient, log Kow of the compound
Quick one: just the number, no unit, thanks!

Known results for compounds:
- Cn1cc(CC(=O)O)c2ccccc21: 1.87
- CCCCc1ccc2[nH]cc(CC(=O)O)c2c1: 3.89

Field logP (entry O=C(O)Cc1c[nH]c2c(F)cccc12 ) reads 1.81

Field logP (entry O=C(O)Cc1c[nH]c2c(Cl)c(Cl)ccc12 ) reads 3.16

Field logP (entry Cc1[nH]c2ccccc2c1CC(=O)O ) reads 1.72
